Below, each entry is listed alongside its reported Bmal1(PASB) dTmB.
- Study Target: BMAL1 (Homo sapiens)
- Parameters: PASB domain (residues 338–449); Protein thermal shift (PTS) fragment screen on recombinant human BMAL1(PASB), shift of melting temperature
- Recorded Conditions: dTmB; binder
Observation Type: Bmal1(PASB) dTmB

> print(dat)
                                   molecule          study.target  observation.type  measured.result
1                        c1cnc(N2CCNCC2)nc1  BMAL1 (Homo sapiens)  Bmal1(PASB) dTmB         -0.21 °C
2        CC(N)COc1ccccc1 (centres unmarked)  BMAL1 (Homo sapiens)  Bmal1(PASB) dTmB          0.11 °C
3  CCN(CCCCO)C(C)Cc1ccc(OC)cc1 (centres unmarked)  BMAL1 (Homo sapiens)  Bmal1(PASB) dTmB         -0.23 °C
4            c1ccc(C(c2ccccc2)N2CCCNCC2)cc1  BMAL1 (Homo sapiens)  Bmal1(PASB) dTmB         -1.89 °C
5   Cc1ccccc1NC(=O)C(C)N (centres unmarked)  BMAL1 (Homo sapiens)  Bmal1(PASB) dTmB          0.12 °C

* * *

- Study Target: BMAL1 (Homo sapiens, UniProt O00327)
- Sequence (O00327 338-449): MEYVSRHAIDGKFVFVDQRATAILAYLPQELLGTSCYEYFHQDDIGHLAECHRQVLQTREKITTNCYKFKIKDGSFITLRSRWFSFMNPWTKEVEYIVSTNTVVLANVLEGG
- Parameters: PASB domain (residues 338–449); Protein thermal shift (PTS) fragment screen on recombinant human BMAL1(PASB), shift of melting temperature
- Recorded Conditions: dTmB; binder
Rule: Bmal1(PASB) dTmB under -0.3 °C gives N, otherwise Y.

> print(dat)
                                   compound  qualitative.label
1                 O=C(O)c1ccc(Oc2ccccc2)cc1                  N
2  CC(C)(C)NCC(O)c1ccccc1 (centres unmarked)                  N
3                         Oc1ccc2cc[nH]c2c1                  Y
4                         CCOc1ccccc1C(=N)N                  N
5                                O=C1CNCCN1                  N

* * *

- Study Target: BMAL1 (Homo sapiens, UniProt O00327)
- Design: PASB domain (residues 338–449); Protein thermal shift (PTS) fragment screen on recombinant human BMAL1(PASB), shift of melting temperature
- Recorded Conditions: dTmB; binder
Observation Type: Bmal1(PASB) dTmB (°C)

> print(dat)
                                  compound  measured.result
 1                          COc1ccccc1OCCO             0.76
 2                              OCC1CCNCC1             0.08
 3       Fc1ccc(C(c2ccc(F)cc2)N2CCNCC2)cc1            -2.55
 4                 Cc1cc(=O)[nH]c(=S)[nH]1            -0.75
 5                NC(=O)NS(=O)(=O)c1ccccc1             0.09
 6  COC(=O)C(O)c1ccccc1 (centres unmarked)             0.02
 7                         O=C(O)CC1CCCCC1             0.13
 8                      COC(=O)c1ccc(N)cc1            -0.11
 9                               O=C1CNCN1            -0.07
10              Cc1cc(C2CCCCC2)n(O)c(=O)c1            -1.46
11                    Cc1ccccc1-c1ccccc1CO            -1.24
12                     NC(N)=NCc1cccc(I)c1            -0.90
13            CS(=O)(=O)Nc1ccccc1Oc1ccccc1            -1.83
14                   CC(=O)c1ccc2c(c1)OCO2            -1.06
15                         c1cc2c(s1)CCNC2            -0.53
16                           NCCc1cnc[nH]1            -0.23
17                   CNS(=O)(=O)CCc1ccccc1            -0.29
18                       NCC1(c2ccccc2)CC1            -0.24
19                         Cc1n[nH]c(C)c1N            -1.19
20                       Nc1cc2ccccc2oc1=O             0.68
